Source listed as patent US20210253725A1.

Biological target: T1, CD134 expressed on the cell surface of HT1080_OX40 cells (human, UniProt P43489 29-277)
T1 construct: whole, on cells; species not restated for the HT1080 transfectant
T1 sequence (looked up): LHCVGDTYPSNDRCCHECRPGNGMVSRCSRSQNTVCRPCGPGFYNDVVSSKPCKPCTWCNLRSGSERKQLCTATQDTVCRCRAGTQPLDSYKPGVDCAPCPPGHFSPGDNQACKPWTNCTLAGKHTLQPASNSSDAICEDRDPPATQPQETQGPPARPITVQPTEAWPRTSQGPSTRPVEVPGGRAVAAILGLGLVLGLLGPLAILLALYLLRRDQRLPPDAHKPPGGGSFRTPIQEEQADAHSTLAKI
Assay: HT1080_OX40 cells, imaging; further: test concentration or dose not given here
Provide the recorded Cellular binding assay [RFU] for the entries that follow.
Write down the numeric answer in RFU and omit the unit.

Consider the binder P018.S.11.A.A04 (antibody, V domains shown, V regions on human Ig constant parts; also called AB134_21) VH: QSVEESGGRLVTPGTPLTLTCTVSGFSLSSYAMGWVRQAPGKGLEYIGVISTSANTYYATWAKGRFTISKTSTTVDLRITSPTTEDTATYFCARVVGLYDSYGDVDATYDAFDPWGPGTLVTVSS VL: AQVLTQTASPVSAAVGDTVTINCQSSQSVYNNNLLSWYQQKPGQPPKLLVYDASNLASGVPHRFSGSGSGTQFTLTISGVQSDDAATYYCLGGYDDDADIYAFGGGTEVVVK . State its measured Cellular binding assay [RFU]. 582

Consider the binder P018.S.11.A.A05 (antibody, V domains shown, V regions on human Ig constant parts; also called AB134_22) VH: QSVEESGGRLVTPGTPLTLTCTVSGFSLNSYDMSWVRQAPGKGLEWIGFISASGSIYFANWAKGRFTISKTSTTVDLKITSPTTEDTATYFCASDSYGWAYVYYFNLWGPGTLVTVSS VL: AVVLTQTPASVSAAVGGTVTINCRASEDIGSYLGWYQQKPGQPPKLLMHDASDLASGVPSRFSGSGSGTEFTLTISGVQSDDAATYYCQSAWYSSGTDKMAFGGGTEVVVK . State its measured Cellular binding assay [RFU]. 550

Consider the binder P018.S.11.A.B06 (antibody, V domains shown, V regions on human Ig constant parts; also called AB134_27) VH: QSVEESGGRLVTPGTPLTLTCTASGFSLINYNMGWVRQAPGEGLEWIGTILTDGTVYYSNWAKGQFTISKTSTTVDLEMTSPTNEDTATYFCARDYPSYIAFDLWGPGTLVTVSS VL: AQVLTQTASSVSAAVGGTVTINCQASQSVYNDDNLAWLQQKPGQPPKLLIYGASSLASGVPSRFSGSGSGTEFTLTISGVQSEDAAIYYCQGGGFSSGWYWAFGGGTEVVVK . State its measured Cellular binding assay [RFU]. 441
